Sourced from BindingDB's records for doi:10.1021/jm00113a023

# measured-target: Gastrin/cholecystokinin type B receptor (Cavia porcellus)
# assay-explanation: Binding affinity for Cholecystokinin type B receptor in guinea pig cortex by using [125I]BH-CCK-8 as radioligand
pIC50: −log10 of the molar value.

{"smiles-text": "CC(C)(C)OC(=O)N[C@@H](Cc1c[nH]c2ccccc12)C(=O)N[C@@H](CCCC/N=C(\\S)Nc1ccccc1Cl)C(=O)N[C@@H](CC(=O)O)C(=O)N[C@@H](Cc1ccccc1)C(N)=O", "pIC50": 5.54}
